Tested on: styrene monooxygenase StyA/StyB from A. baylyi
Assay: in vitro sulfoxidation of arylsulfide substrates by purified StyA (oxygenase) with excess StyB (reductase), HPLC analysis
Format: biochemical, Acinetobacter baylyi sp. ADP1
Details: enzymatic conversion to sulfoxide; 2 mM substrate (1 mM in case of clouding), purified StyA with excess StyB
Assignment: determine reported yield %) for the given compounds.
Expressed in %, but write only the number.

yield %) measured on CSc1ccc(C)cc1 [p(CH3)—Ph—S—CH3, 4-methylphenyl methyl sulfide] = 42

yield %) measured on CSc1ccccc1 [Ph—S—CH3, phenyl methyl sulfide] = 48

yield %) measured on CSc1ccc(F)cc1 [p(F)—Ph—S—CH3, 4-fluorophenyl methyl sulfide] = 55

yield %) measured on CSc1ccc(Cl)cc1 [p(Cl)—Ph—S—CH3, 4-chlorophenyl methyl sulfide] = 34

yield %) measured on CSc1ccc(Br)cc1 [p(Br)—Ph—S—CH3, 4-bromophenyl methyl sulfide] = 58

yield %) measured on C=CSc1ccccc1 [Ph—S—CH═CH2, phenyl vinyl sulfide] = 40
